From: patent US10759813B2

Biological target: human neprilysin (EC 3.4.24.11; NEP) (Homo sapiens (Human), UniProt P08473)
Sequence (P08473 52-750): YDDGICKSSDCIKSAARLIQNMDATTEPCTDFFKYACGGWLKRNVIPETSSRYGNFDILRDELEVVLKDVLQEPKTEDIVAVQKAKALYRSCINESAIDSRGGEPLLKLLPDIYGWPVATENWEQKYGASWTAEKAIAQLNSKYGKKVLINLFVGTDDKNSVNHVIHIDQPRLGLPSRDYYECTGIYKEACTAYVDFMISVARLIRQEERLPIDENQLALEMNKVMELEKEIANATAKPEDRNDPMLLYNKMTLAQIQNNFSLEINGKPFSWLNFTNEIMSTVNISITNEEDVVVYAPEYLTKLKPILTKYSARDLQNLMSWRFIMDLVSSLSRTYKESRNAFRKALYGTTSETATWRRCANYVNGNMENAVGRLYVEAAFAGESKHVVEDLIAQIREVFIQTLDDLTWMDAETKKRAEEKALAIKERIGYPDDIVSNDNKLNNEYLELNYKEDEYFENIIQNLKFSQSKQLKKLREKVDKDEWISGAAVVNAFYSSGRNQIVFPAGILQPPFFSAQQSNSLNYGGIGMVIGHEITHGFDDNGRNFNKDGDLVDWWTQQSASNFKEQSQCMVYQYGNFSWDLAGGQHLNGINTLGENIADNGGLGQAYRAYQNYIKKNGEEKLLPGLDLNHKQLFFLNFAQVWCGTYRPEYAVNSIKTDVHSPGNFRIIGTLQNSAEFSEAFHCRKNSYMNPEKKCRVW
Test: In vitro enzyme inhibition assay at human NEP (fluorogenic peptide substrate)
Settings: pKi values at human NEP, recombinant human NEP
Recorded Ki by entry

O=C(N[C@H](Cc1ccc(-c2ccccc2)cc1)CC(O)C(=O)O)c1cc(C(=O)N2CCC(O)C2)n[nH]1 (some centres unmarked) [Example 15-42]    ≤ 0.001 µM
O=C1CCC(C(=O)N[C@H](Cc2ccc(-c3ccccc3)cc2)CC(O)C(=O)O)=NN1 (some centres unmarked) [Example 13-6]    0.0126 to 0.1 µM
O=C(N[C@H](Cc1ccc(-c2ccccc2)cc1)C[C@@H](O)C(=O)O)c1cc(-c2cnccn2)n[nH]1 [Example 15-106]    0.00126 to 0.01 µM
NC(=O)c1cc(C(=O)N[C@H](Cc2ccc(-c3ccccc3)cc2)CC(O)C(=O)O)[nH]n1 (some centres unmarked) [Example 15-59]    0.00126 to 0.01 µM
O=C(N[C@H](Cc1ccc(-c2ccccc2)cc1)CC(O)C(=O)O)c1cnc2nn[nH]c2c1 (some centres unmarked) [Example 11-11]    0.00126 to 0.01 µM

Please find the next molecule below.
Problem: Given O=C(O)c1cnc(C(=O)N[C@H](Cc2ccc(-c3ccccc3)cc2)CC(O)C(=O)O)cn1 (some centres unmarked) [Example 13-1] , state its recorded Ki.
Solution: 0.00126 to 0.01 µM

---

Target: human neprilysin (EC 3.4.24.11; NEP) (Homo sapiens (Human))
Assay: In vitro enzyme inhibition assay at human NEP (fluorogenic peptide substrate)
Details: pKi values at human NEP, recombinant human NEP
pKi: −log10 of the molar value.
recorded metric: pKi

Problem: Given O=C(O)CCn1nc(C(=O)N[C@H](Cc2ccc(-c3ccccc3)cc2)C[C@@H](O)C(=O)O)cc1-c1ccccc1 , state its recorded pKi.
Solution: 8.00 to 8.90

Problem: Given O=C(O)c1cccc(Cn2nnc3cc(C(=O)N[C@H](Cc4ccc(-c5ccccc5)cc4)CC(O)C(=O)O)ccc32)c1 (stereo partly shown) , state its recorded pKi.
Solution: 8.00 to 8.90

---

Biological target: human neprilysin (EC 3.4.24.11; NEP) (Homo sapiens (Human), UniProt P08473)
Assay: In vitro enzyme inhibition assay at human NEP (fluorogenic peptide substrate)
Conditions: pKi values at human NEP, recombinant human NEP
pKi: −log10 of the molar value.
recorded metric: pKi

Problem: Which measured pKi belongs to CC(C)(c1ccc(-c2ccccc2)cc1)[C@H](C[C@@H](O)C(=O)O)NC(=O)c1cn(O)nn1 [Example 25-2] , tested on human neprilysin (EC 3.4.24.11; NEP) (Homo sapiens (Human), UniProt P08473)?
Solution: 8.00 to 8.90

Problem: Which measured pKi belongs to O=C(N[C@H](Cc1ccc(-c2ccccc2)cc1)CC(O)C(=O)O)c1cc(C(=O)O)n(Cc2cccc(Cl)c2)n1 (some centres unmarked) [Example 15-7] , tested on human neprilysin (EC 3.4.24.11; NEP) (Homo sapiens (Human), UniProt P08473)?
Solution: 8.00 to 8.90

Problem: Which measured pKi belongs to COCc1cc(C(=O)N[C@H](Cc2ccc(-c3ccccc3)cc2)C[C@@H](O)C(=O)O)n[nH]1 [Example 15-4] , tested on human neprilysin (EC 3.4.24.11; NEP) (Homo sapiens (Human), UniProt P08473)?
Solution: 8.00 to 8.90

Problem: Which measured pKi belongs to NC(=O)C1CCN(C(=O)c2cc(C(=O)N[C@H](Cc3ccc(-c4ccccc4)cc3)C[C@H](O)C(=O)O)[nH]n2)C1 (some centres unmarked) [Example 15-44] , tested on human neprilysin (EC 3.4.24.11; NEP) (Homo sapiens (Human), UniProt P08473)?
Solution: 8.00 to 8.90

Problem: Which measured pKi belongs to CCCCc1cc(C(=O)N[C@H](Cc2ccc(-c3ccccc3)cc2)CC(O)C(=O)O)[nH]n1 (some centres unmarked) [Example 15-75] , tested on human neprilysin (EC 3.4.24.11; NEP) (Homo sapiens (Human), UniProt P08473)?
Solution: 8.00 to 8.90

Problem: Which measured pKi belongs to O=C(N[C@H](Cc1ccc(-c2ccccc2)cc1)CC(O)C(=O)O)c1cc(-c2ccc(-c3ccccc3)cc2)[nH]n1 (some centres unmarked) [Example 15-39] , tested on human neprilysin (EC 3.4.24.11; NEP) (Homo sapiens (Human), UniProt P08473)?
Solution: 7.00 to 7.90

Problem: Which measured pKi belongs to O=C(N[C@H](Cc1ccc(-c2cccc(Cl)c2)cc1)C[C@@H](O)C(=O)O)c1ccc(=O)n(Cc2ccccc2)n1 [Example 18-48] , tested on human neprilysin (EC 3.4.24.11; NEP) (Homo sapiens (Human), UniProt P08473)?
Solution: 8.00 to 8.90

Problem: Which measured pKi belongs to O=C(O)c1cc(C(=O)N[C@H](Cc2ccc(-c3ccccc3)cc2)C[C@@H](O)C(=O)O)on1 [Example 12-14] , tested on human neprilysin (EC 3.4.24.11; NEP) (Homo sapiens (Human), UniProt P08473)?
Solution: 7.00 to 7.90

---

Target: human neprilysin (EC 3.4.24.11; NEP) (Homo sapiens (Human), UniProt P08473)
Test: In vitro enzyme inhibition assay at human NEP (fluorogenic peptide substrate)
Conditions: pKi values at human NEP, recombinant human NEP
pKi: −log10 of the molar value.
Recorded pKi by entry

O=C(N[C@H](Cc1ccc(-c2ccccc2)cc1Cl)C[C@@H](O)C(=O)O)c1cc(-c2ccccn2)n[nH]1 [Example 20-9]    8.00 to 8.90
O=C(N[C@H](Cc1ccc(-c2ccccc2)cc1)CC(O)C(=O)O)c1cc(C(=O)O)n(Cc2ccc(Cl)cc2F)n1 (some centres unmarked) [Example 15-13]    8.00 to 8.90
O=C(N[C@H](Cc1ccc(-c2ccccc2)cc1)CC(O)C(=O)O)c1ccc(C(=O)O)nc1 (some centres unmarked) [Example 13-8]    7.00 to 7.90
O=C(N[C@H](Cc1ccc(-c2ccccc2)cc1)C[C@H](O)C(=O)O)c1cc(C(=O)N2CCC(O)CC2)n[nH]1 [Example 15-50]    7.00 to 7.90

Please find the next molecule below.
Problem: Which measured pKi belongs to C[C@H](O)c1cc(C(=O)N[C@H](Cc2ccc(-c3ccccc3)cc2)C[C@@H](O)C(=O)O)[nH]n1 [Example 15-109] , tested on human neprilysin (EC 3.4.24.11; NEP) (Homo sapiens (Human), UniProt P08473)?
Solution: 8.00 to 8.90
